What clearance was measured for each of the following?
assay: Pharmacokinetics in rat (PDX-T-07034-R); format: in vivo; conditions: plasma, 5 mg/kg, Day 1, calculated using average BW 0.35 kg, read-out: CLtot relative to BW

> print(dat)
                                   compound  assaymetric  recordedmeasurement
1  C#CC[C@H](Cc1cnc2nc(N)nc(N)c2n1)c1ccc(C(=O)N[C@@H](CCC(=O)O)C(=O)O)cc1 (single isomer, unassigned) [PDX-10b]    clearance        ~10 mL/min/kg

Could you now look at the following compound, please?
(Q) Please give the documented clearance of C#CC[C@@H](Cc1cnc2nc(N)nc(N)c2n1)c1ccc(C(=O)N[C@@H](CCC(=O)O)C(=O)O)cc1 (single isomer, unassigned) [PDX-10a]
(A) ~10 mL/min/kg
